molecular target: Recombinant human his-tagged IGF 1R extracellular domain protein (human) (UniProt P08069); test: SPR, captured IgG, IGF-1R ECD-his analyte, dissociation pH 7.4
reported.endpoint: kon (M⁻¹ s⁻¹)
Write the number in M⁻¹ s⁻¹ without appending the unit.

| binder | unit.abbrev | kon |
| --- | --- | --- |
| VRDN-02541 (antibody, V domains shown) VH: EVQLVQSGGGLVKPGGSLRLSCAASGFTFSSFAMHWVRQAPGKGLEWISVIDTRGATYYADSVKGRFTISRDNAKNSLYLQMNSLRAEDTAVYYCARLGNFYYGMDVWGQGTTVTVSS VL: EIVLTQSPGTLSVSPGERATLSCRASQSIGSSLHWYQQKPGQAPRLLIKYAHQSLSGIPDRFSGSGSGTDFTLTISRLEPEDFAVYYCHQSSRLPHTFGQGTKVEIK | M⁻¹ s⁻¹ | 153000 |
| VRDN-02513 (antibody, V domains shown) VH: EVQLVQSGGGLVKPGGSLRLSCAASGFTFSSFAMHWVRQAPGKGLEWISVIDTRHATYYADSVKGRFTISRDNAKNSLYLQMNSLRAEDTAVYYCARLGNFYYGMDVWGQGTTVTVSS VL: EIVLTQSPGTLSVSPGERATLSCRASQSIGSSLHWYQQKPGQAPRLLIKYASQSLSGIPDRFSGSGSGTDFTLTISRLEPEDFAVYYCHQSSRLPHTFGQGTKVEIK | M⁻¹ s⁻¹ | 48200 |
| VRDN-02550 (antibody, V domains shown) VH: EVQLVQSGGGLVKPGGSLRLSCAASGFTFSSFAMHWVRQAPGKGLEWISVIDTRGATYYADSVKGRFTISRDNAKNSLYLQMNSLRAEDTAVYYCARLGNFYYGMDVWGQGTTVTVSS VL: EIVLTQSPGTLSVSPGERATLSCRASQSIGSSLHWYQQKPGQAPRLLIKYASQSLSGIPDRFSGSGSGTDFTLTISRLEPEDFAVYYCHQSSRHPHTFGQGTKVEIK | M⁻¹ s⁻¹ | 160000 |
| VRDN-02547 (antibody, V domains shown) VH: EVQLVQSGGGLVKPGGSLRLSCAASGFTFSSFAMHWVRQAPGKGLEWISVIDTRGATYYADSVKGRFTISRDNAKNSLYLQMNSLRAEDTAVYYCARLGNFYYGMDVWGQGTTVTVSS VL: EIVLTQSPGTLSVSPGERATLSCRASQSIGSSLHWYQQKPGQAPRLLIKYASQSLSGIPDRFSGSGSGTDFTLTISRLEPEDFAVYYCHQHSRLPHTFGQGTKVEIK | M⁻¹ s⁻¹ | 119000 |
| VRDN-02536 (antibody, V domains shown) VH: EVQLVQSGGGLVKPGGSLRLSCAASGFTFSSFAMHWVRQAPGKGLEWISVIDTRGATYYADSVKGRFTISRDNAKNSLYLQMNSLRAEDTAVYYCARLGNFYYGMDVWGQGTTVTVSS VL: EIVLTQSPGTLSVSPGERATLSCRASQSIGSHLHWYQQKPGQAPRLLIKYASQSLSGIPDRFSGSGSGTDFTLTISRLEPEDFAVYYCHQSSRLPHTFGQGTKVEIK | M⁻¹ s⁻¹ | 134000 |

Lab book: kon of VRDN-02559 (antibody, V domains shown) VH: EVQLVQSGGGLVKPGGSLRLSCAASGFTFSSFHMHWVRQAPGKGLEWISVIDTRGATYYADSVKGRFTISRDNAKNSLYLQMNSLRAEDTAVYYCHRLGNFYYGMDVWGQGTTVTVSS VL: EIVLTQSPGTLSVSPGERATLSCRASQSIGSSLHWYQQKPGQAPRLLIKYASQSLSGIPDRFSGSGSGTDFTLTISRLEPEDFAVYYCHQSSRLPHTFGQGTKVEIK noted as 849000

Note to self: kon recorded for VRDN-02549 (antibody, V domains shown) VH: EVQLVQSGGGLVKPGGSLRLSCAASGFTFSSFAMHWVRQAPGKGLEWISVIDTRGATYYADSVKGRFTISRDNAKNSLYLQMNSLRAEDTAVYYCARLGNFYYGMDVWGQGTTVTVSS VL: EIVLTQSPGTLSVSPGERATLSCRASQSIGSSLHWYQQKPGQAPRLLIKYASQSLSGIPDRFSGSGSGTDFTLTISRLEPEDFAVYYCHQSSHLPHTFGQGTKVEIK was 119000

The binder listed as VRDN-02556 (antibody, V domains shown) VH: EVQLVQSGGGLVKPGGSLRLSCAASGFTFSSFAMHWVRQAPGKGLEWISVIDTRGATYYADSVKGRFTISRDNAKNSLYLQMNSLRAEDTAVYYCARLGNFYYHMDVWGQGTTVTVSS VL: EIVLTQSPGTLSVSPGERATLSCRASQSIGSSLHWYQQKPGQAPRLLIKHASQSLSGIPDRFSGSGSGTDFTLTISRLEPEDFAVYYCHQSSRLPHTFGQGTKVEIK shows kon equal to 1.22e+06

Summary for this binder, VRDN-02500 (antibody, human IgG1, kappa, V domains shown) VH: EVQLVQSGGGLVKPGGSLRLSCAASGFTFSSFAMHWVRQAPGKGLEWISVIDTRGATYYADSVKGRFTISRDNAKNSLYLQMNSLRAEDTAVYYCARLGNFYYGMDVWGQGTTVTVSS VL: EIVLTQSPGTLSVSPGERATLSCRASQSIGSSLHWYQQKPGQAPRLLIKYASQSLSGIPDRFSGSGSGTDFTLTISRLEPEDFAVYYCHQSSRLPHTFGQGTKVEIKR : kon is 62100

For this binder ( VRDN-02565 (antibody, V domains shown) VH: EVQLVQSGGGLVKPGGSLRLSCAASGFTFSSFAMHWVRQAPGKGLEWISVIDTRGATYYADSVKGRFTISRDNAKNSLYLQMNSLRAEDTAVYYCHRLGNFYYHMDVWGQGTTVTVSS VL: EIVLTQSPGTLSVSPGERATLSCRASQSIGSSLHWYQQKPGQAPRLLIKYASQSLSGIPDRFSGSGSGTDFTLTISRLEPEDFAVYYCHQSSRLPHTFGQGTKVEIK ), measured kon is 2.66e+06

meta.source: patent US20240343814A1
